Target: R47E PTP1B (Homo sapiens, UniProt P18031, R47E)
Sequence (P18031 1-321 R47E): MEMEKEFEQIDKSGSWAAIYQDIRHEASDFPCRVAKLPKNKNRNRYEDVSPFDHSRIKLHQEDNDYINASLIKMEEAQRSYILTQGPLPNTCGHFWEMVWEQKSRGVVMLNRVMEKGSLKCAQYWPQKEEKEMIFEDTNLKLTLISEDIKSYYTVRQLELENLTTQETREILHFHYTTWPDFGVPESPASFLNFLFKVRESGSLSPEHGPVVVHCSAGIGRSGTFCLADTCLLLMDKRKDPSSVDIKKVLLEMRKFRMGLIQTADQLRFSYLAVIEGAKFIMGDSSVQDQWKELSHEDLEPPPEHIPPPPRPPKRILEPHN
Test: PTP assay, R47E PTP1B
Format: biochemical
Details: ratio of kcat/KM, WT over R47E PTP1B (fold decrease by the mutation)

SUBSTANCE | WT/R47E
AApYADDAA | 4.8
AApYDDIDE | 14
AApYAAADD | 2.8
AApYAADDA | 3.4
AApYDDAAA | 4.4
AApYIRKRA | 1.1
DPRGIpYDQVAG | 2.5
Ac-AWGPLpYDEVQM-NH2 | 2.8
EEDNAWpYAA | 6.4

----------
Biological target: R47E PTP1B (Homo sapiens, UniProt P18031, R47E)
Assay: PTP assay, R47E PTP1B
Format: biochemical
Settings: R47E PTP1B aa 1–321; pH 7.4

SUBSTANCE | MEASURED TARGET | kcat/KM x 10^7
AApYADDAA | R47E PTP1B (Homo sapiens, UniProt P18031, R47E) | 0.29 x 10^7 M^−1 s^−1
AApYAADDA | R47E PTP1B (Homo sapiens, UniProt P18031, R47E) | 0.32 x 10^7 M^−1 s^−1
AApYIRKRA | R47E PTP1B (Homo sapiens, UniProt P18031, R47E) | 0.038 x 10^7 M^−1 s^−1
Ac-AWGPLpYDEVQM-NH2 | R47E PTP1B (Homo sapiens, UniProt P18031, R47E) | 0.61 x 10^7 M^−1 s^−1
AApYDDAAA | R47E PTP1B (Homo sapiens, UniProt P18031, R47E) | 0.097 x 10^7 M^−1 s^−1
AApYAAADD | R47E PTP1B (Homo sapiens, UniProt P18031, R47E) | 0.35 x 10^7 M^−1 s^−1
AApYDDIDE | R47E PTP1B (Homo sapiens, UniProt P18031, R47E) | 0.076 x 10^7 M^−1 s^−1
EEDNAWpYAA | R47E PTP1B (Homo sapiens, UniProt P18031, R47E) | 0.33 x 10^7 M^−1 s^−1
DPRGIpYDQVAG | R47E PTP1B (Homo sapiens, UniProt P18031, R47E) | 0.15 x 10^7 M^−1 s^−1
